Origin of values: ChEMBL document CHEMBL5537115

For each of the molecules below, state its log10 of MIC.
Test system: Streptococcus pyogenes
assay name: Antibacterial activity against erythromycin-resistant Streptococcus pyogenes 2 clinical isolate assessed as bacterial growth inhibition incubated for 20 hrs by CLSI based broth microdilution method
Type: functional
In our notation, the value equals log10 of MIC in µg/mL.

Solved cases (2 shown):
1. C[n+]1cc(-c2ccccc2)cc(/C=C/c2ccc(F)cc2)c1-c1ccccc1.[I-] | 0.90
2. CCCCCOc1ccc(/C=C/c2cc(-c3ccccc3)[n+](C)cc2-c2ccccc2)cc1.[I-] | 0.30

For each of the items listed, what is its log10 of MIC?
1. C[n+]1cc(-c2ccccc2)c(/C=C/c2ccc(N)cc2)cc1-c1ccc(C(C)(C)C)cc1.[I-]
2. Cc1ccc(/C=C/c2cc(-c3ccc(C(C)(C)C)cc3)[n+](C)cc2-c2ccccc2C)cc1.[I-]
3. CCCCCCOc1ccc(/C=C/c2cc(-c3ccccc3)c[n+](C)c2-c2ccccc2)cc1.[I-]
4. Cc1ccccc1-c1c[n+](C)c(-c2ccc(C(C)(C)C)cc2)cc1/C=C/c1ccc(F)cc1.[I-]
5. C[n+]1cc(-c2ccccc2)cc(/C=C/c2ccc(C(C)(C)C)cc2)c1-c1ccccc1.[I-]

0.30
0.60
0.30
0.30
0.30

For the 5 molecules below, give their log10 of MIC values.
1. C[n+]1cc(-c2ccccc2)c(/C=C/c2ccc(C(C)(C)C)cc2)cc1-c1ccc2ccccc2c1.[I-]
2. Cc1ccccc1-c1c[n+](C)c(-c2ccc(C(C)(C)C)cc2)cc1/C=C/c1ccc(O)cc1.[I-]
3. COc1ccc(/C=C/c2cc(-c3ccccc3)c[n+](C)c2-c2ccccc2)cc1.[I-]
4. C[n+]1cc(-c2ccccc2)c(/C=C/c2ccc(N3CCCCC3)cc2)cc1-c1ccc2ccccc2c1.[I-]
5. CC(C)c1ccc(/C=C/c2cc(-c3ccccc3)c[n+](C)c2-c2ccccc2)cc1.[I-]

1. 0.60
2. 0.30
3. 0.90
4. 0.30
5. 0.30

---

System: Bacillus subtilis
assay name: Antibacterial activity against penicillin-susceptible Bacillus subtilis ATCC9372 assessed as bacterial growth inhibition incubated for 20 hrs by CLSI based broth microdilution method
Format: functional
Lab note - cut at 4 µg/mL for MIC: Satisfied if strictly below, Not satisfied if not.

Lab note: MIC threshold 4 µg/mL. Does this compound come in strictly under it? C[n+]1cc(-c2ccccc2)c(/C=C/c2ccc(O)cc2)cc1-c1ccccc1.[I-]
Not satisfied

A record lists CCCCCOc1ccc(/C=C/c2cc(-c3ccccc3)[n+](C)cc2-c2ccccc2)cc1.[I-] . Is its MIC below 4 µg/mL?
Satisfied

# TODO verify MIC < 4 µg/mL strictly for this compound: CCCOc1ccc(/C=C/c2cc(-c3ccccc3)c[n+](C)c2-c2ccccc2)cc1.[I-]
Satisfied

Hello, I'm reviewing records and need to know if MIC of CCCOc1ccc(/C=C/c2cc(-c3ccc(C(C)(C)C)cc3)[n+](C)cc2-c2ccccc2)cc1.[I-] is below 4 µg/mL. Could you check?
Satisfied

A record lists CN(C)c1ccc(/C=C/c2cc(-c3ccc(C(C)(C)C)cc3)[n+](C)cc2-c2ccccc2)cc1.[I-] . Is its MIC below 4 µg/mL?
Satisfied

---

Test system: Bacillus subtilis
assay name: Antibacterial activity against penicillin-susceptible Bacillus subtilis ATCC9372 assessed as bacterial growth inhibition incubated for 20 hrs by CLSI based broth microdilution method
Type: functional
Each record is given Y if its reported MIC is strictly below 0.5 µg/mL. Records at or above 0.5 µg/mL are given N.

Use the examples below as a reference point.
1. CCCCCCCOc1ccc(/C=C/c2cc(-c3ccccc3)c[n+](C)c2-c2ccccc2)cc1.[I-] | N
2. CC[C@H]1OC(=O)[C@H](C)[C@@H](O[C@H]2C[C@@](C)(OC)[C@@H](O)[C@H](C)O2)[C@H](C)[C@@H](O[C@@H]2O[C@H](C)C[C@H](N(C)C)[C@H]2O)[C@](C)(O)C[C@@H](C)CN(C)[C@H](C)[C@@H](O)[C@]1(C)O | Y

Is MIC strictly under 0.5 µg/mL for the entry CCc1ccc(/C=C/c2cc(-c3ccccc3)c[n+](C)c2-c2ccccc2)cc1.[I-] ?
N

Field: below-cutoff. Rule: recorded MIC strictly less than 0.5 µg/mL. Subject: C[n+]1cc(-c2ccccc2)cc(/C=C/c2ccc(C(F)(F)F)cc2)c1-c1ccccc1.[I-]
N

Find out if reported MIC for C[n+]1cc(-c2ccccc2)c(/C=C/c2ccc(N)cc2)cc1-c1ccccc1.[I-] is less than 0.5 µg/mL
N

---

System: Enterococcus faecium
assay name: Antibacterial activity against vancomycin-resistant Enterococcus faecium ATCC51559 assessed as bacterial growth inhibition incubated for 20 hrs by CLSI based broth microdilution method
Type: functional
measurement label: MIC (µg/mL)
Answers are plain numbers, in µg/mL.

1) Cc1ccccc1-c1c[n+](C)c(-c2ccc(C(C)(C)C)cc2)cc1/C=C/c1ccc(O)cc1.[I-] | 2
2) CCCCCOc1ccc(/C=C/c2cc(-c3ccccc3)[n+](C)cc2-c2ccccc2)cc1.[I-] | 1

Here's the next entry for you.
If you can, please state the reported MIC value of CCCCCCOc1ccc(/C=C/c2cc(-c3ccccc3)[n+](C)cc2-c2ccccc2)cc1.[I-] .
1

---

What MIC was measured for each of the following?
System: Streptococcus pyogenes
assay name: Antibacterial activity against erythromycin-resistant Streptococcus pyogenes 2 clinical isolate assessed as bacterial growth inhibition incubated for 20 hrs by CLSI based broth microdilution method
Format: functional
Give bare numbers, in mg/L.

# map each molecule to its MIC
1. CCCCCOc1ccc(/C=C/c2cc(-c3ccccc3)c[n+](C)c2-c2ccccc2)cc1.[I-]
2. Cc1ccccc1-c1c[n+](C)c(-c2ccc(C(C)(C)C)cc2)cc1/C=C/c1ccc(N(C)C)cc1.[I-]
3. C[n+]1cc(-c2ccccc2)c(/C=C/c2ccc(F)cc2)cc1-c1ccccc1.[I-]
4. CCCCCCCOc1ccc(/C=C/c2cc(-c3ccccc3)c[n+](C)c2-c2ccccc2)cc1.[I-]

2
2
2
8

Would you mind listing MIC for each of the following molecules?
1. CN(C)[C@@H]1C(O)=C(C(N)=O)C(=O)[C@@]2(O)C(O)=C3C(=O)c4c(O)cccc4[C@@](C)(O)[C@H]3C[C@@H]12 [TETRACYCLINE]
2. C[n+]1cc(-c2ccccc2)cc(/C=C/c2ccc(Cl)c(Cl)c2)c1-c1ccccc1.[I-]
3. C[n+]1cc(-c2ccccc2)c(/C=C/c2ccc(F)cc2)cc1-c1ccc(C(C)(C)C)cc1.[I-]
4. C[n+]1cc(-c2ccccc2)c(/C=C/c2ccc(N3CCCC3)cc2)cc1-c1ccc(C(C)(C)C)cc1.[I-]

1: 64; 2: 2; 3: 4; 4: 1

Quick one: MIC of C[n+]1cc(-c2ccccc2)cc(/C=C/c2cccc(Br)c2)c1-c1ccccc1.[I-] ?
8

---

Tested on: Enterococcus faecalis
assay name: Antibacterial activity against vancomycin-susceptible Enterococcus faecalis ATCC29212 assessed as bacterial growth inhibition incubated for 20 hrs by CLSI based broth microdilution method
Assay type: functional
Assignment: determine reported MIC for the given compounds.
Give bare numbers, in µg/mL.

Completed entries (count: 5):
1. Cc1ccccc1-c1c[n+](C)c(-c2ccc(C(C)(C)C)cc2)cc1/C=C/c1ccc(N(C)C)cc1.[I-] | 2
2. CN(C)c1ccc(/C=C/c2cc(-c3ccccc3)[n+](C)cc2-c2ccccc2)cc1.[I-] | 16
3. C[n+]1cc2c3c(ccc2c2ccc4cc5c(cc4c21)OCO5)OCO3 | 16
4. CCc1ccc(/C=C/c2cc(-c3ccc(C(C)(C)C)cc3)[n+](C)cc2-c2ccccc2C)cc1.[I-] | 2
5. C[n+]1cc(-c2ccccc2)c(/C=C/c2ccc(Cl)c(Cl)c2)cc1-c1ccc(C(C)(C)C)cc1.[I-] | 2

Could you tell me MIC for each of these compounds? They are listed below.
1. CC(C)c1ccc(/C=C/c2cc(-c3ccccc3)c[n+](C)c2-c2ccccc2)cc1.[I-]
2. CCCCCOc1ccc(/C=C/c2cc(-c3ccccc3)[n+](C)cc2-c2ccccc2)cc1.[I-]
3. CC1(C)S[C@@H]2[C@H](NC(=O)[C@H](NC(=O)N3CCN(S(C)(=O)=O)C3=O)c3ccccc3)C(=O)N2[C@H]1C(=O)O
4. Cc1ccc(/C=C/c2cc(-c3ccc(C(C)(C)C)cc3)[n+](C)cc2-c2ccccc2C)cc1.[I-]
5. CCCCCOc1ccc(/C=C/c2cc(-c3ccccc3)c[n+](C)c2-c2ccccc2)cc1.[I-]
6. CN(C)c1ccc(/C=C/c2cc(-c3ccc(C(C)(C)C)cc3)[n+](C)cc2-c2ccccc2)cc1.[I-]
7. CC(C)c1ccc(/C=C/c2cc(-c3ccc4ccccc4c3)[n+](C)cc2-c2ccccc2)cc1.[I-]

[4, 2, 2, 4, 2, 2, 2]

Need MIC for each of these compounds.
1. C[n+]1cc(-c2ccccc2)c(/C=C/c2ccc(N3CCCCC3)cc2)cc1-c1ccc(C(C)(C)C)cc1.[I-]
2. C[n+]1cc(-c2ccccc2)cc(/C=C/c2ccc(Cl)c(Cl)c2)c1-c1ccccc1.[I-]

1
8

For each entry beneath this line, provide reported MIC.
1. C[n+]1cc(-c2ccccc2)c(/C=C/c2ccc(F)cc2)cc1-c1ccccc1.[I-]
2. CN(C)[C@@H]1C(O)=C(C(N)=O)C(=O)[C@@]2(O)C(O)=C3C(=O)c4c(O)cccc4[C@@](C)(O)[C@H]3C[C@@H]12
3. C[n+]1cc(-c2ccccc2)c(/C=C/c2ccc(N)cc2)cc1-c1ccccc1.[I-]
4. CC(=O)Nc1ccc(/C=C/c2cc(-c3ccc4ccccc4c3)[n+](C)cc2-c2ccccc2)cc1.[I-]
5. C[n+]1cc(-c2ccccc2)c(/C=C/c2ccc(N)cc2)cc1-c1ccc(C(C)(C)C)cc1.[I-]

1: 4; 2: 64; 3: 64; 4: 16; 5: 4

Each of the following entries comes with a recorded value; kindly state MIC for each.
1. CCOc1ccc(/C=C/c2cc(-c3ccccc3)c[n+](C)c2-c2ccccc2)cc1.[I-]
2. CCCOc1ccc(/C=C/c2cc(-c3ccc(C(C)(C)C)cc3)[n+](C)cc2-c2ccccc2)cc1.[I-]
3. C[n+]1cc(-c2ccccc2)c(/C=C/c2ccc(F)cc2)cc1-c1ccc(C(C)(C)C)cc1.[I-]
4. C[n+]1cc(-c2ccccc2)c(/C=C/c2ccc(C(C)(C)C)cc2)cc1-c1ccc(C(C)(C)C)cc1.[I-]
5. C[n+]1cc(-c2ccccc2)c(/C=C/c2ccc(O)cc2)cc1-c1ccccc1.[I-]

1: 16; 2: 2; 3: 2; 4: 0.25; 5: 64

Report MIC for every entry below.
1. C[n+]1cc(-c2ccccc2)c(/C=C/c2ccc(O)cc2)cc1-c1ccc(C(C)(C)C)cc1.[I-]
2. Cc1ccccc1-c1c[n+](C)c(-c2ccc(C(C)(C)C)cc2)cc1/C=C/c1ccc(C(C)(C)C)cc1.[I-]
3. C[n+]1cc(-c2ccccc2)c(/C=C/c2ccc(N3CCCC3)cc2)cc1-c1ccc2ccccc2c1.[I-]
4. CCCOc1ccc(/C=C/c2cc(-c3ccccc3)c[n+](C)c2-c2ccccc2)cc1.[I-]
5. C[n+]1cc(-c2ccccc2)cc(/C=C/c2ccc(Br)cc2)c1-c1ccccc1.[I-]

1. 4
2. 1
3. 2
4. 8
5. 16

So what MIC did Cc1ccccc1-c1c[n+](C)c(-c2ccc(C(C)(C)C)cc2)cc1/C=C/c1ccc(O)cc1.[I-] get with Enterococcus faecalis?
2
